Test system: human red blood cells
Assay: Hemolytic activity
Assay type: cell-based
Settings: red cells of human, 18 h, 50
Square brackets hold non-standard residues; d marks the D form. Peptide text beside a SMILES is read from it.
# binarize Hemolysis percent, 50 μM: threshold 1% inclusive, high side Criterion met, low side Criterion not met

Hi team, for CC[C@@H](C)[C@@H](NC(=O)[C@@H](Cc1c[nH]c2ccccc12)NC(=O)[C@@H](C)NC(=O)[C@@H](C)NC(=O)[C@H](N)Cc1c[nH]c2ccccc12)C(=O)NCC(=O)N[C@H](CC(C)C)C(=O)N[C@H](CCCNC(=N)N)C(=O)N[C@H](CCCCN)C(=O)N[C@H](CCCCN)C(=O)N[C@H](CCCNC(=N)N)C(N)=O [WCopW20] (H-[dW][dA][dA][dW][dI]G[dL][dR][dK][dK][dR]-NH2) , is the recorded Hemolysis percent, 50 μM at or above 1%?
Criterion not met

Does the reported Hemolysis percent, 50 μM for CC[C@@H](C)[C@@H](NC(=O)[C@@H](Cc1c[nH]c2ccccc12)NC(=O)[C@H](NC(=O)[C@@H](CC(C)C)NC(=O)[C@@H](Cc1c[nH]c2ccccc12)NC(=O)[C@H](N)CC(=O)O)C(C)C)C(=O)N[C@H](Cc1c[nH]c2ccccc12)C(=O)N[C@H](CCCNC(=N)N)C(=O)N[C@H](CCCNC(=N)N)C(=O)N[C@H](CCCNC(=N)N)C(N)=O [WCopW36] (H-[dD][dW][dL][dV][dW][dI][dW][dR][dR][dR]-NH2) fall at or above the 1% mark?
Criterion met

Please tell me: is the compound CC(C)C[C@@H](NC(=O)[C@H](N)Cc1c[nH]c2ccccc12)C(=O)N[C@@H](C(=O)N[C@H](Cc1c[nH]c2ccccc12)C(=O)N[C@@H](C(=O)N[C@H](Cc1ccc(O)cc1)C(=O)N[C@H](CC(C)C)C(=O)N[C@H](CCCNC(=N)N)C(=O)N[C@H](CCCCN)C(=O)N[C@H](CCCCN)C(=O)N[C@H](CCCNC(=N)N)C(N)=O)C(C)C)C(C)C [WCopWVY2] (H-[dW][dL][dV][dW][dV][dY][dL][dR][dK][dK][dR]-NH2) at or over 1% in terms of Hemolysis percent, 50 μM?
Criterion met

In plain terms: is recorded Hemolysis percent, 50 μM at least 1% for CC[C@@H](C)[C@@H](NC(=O)[C@@H](Cc1c[nH]c2ccccc12)NC(=O)[C@@H](CC(C)C)NC(=O)[C@H](N)CC(C)C)C(=O)NCC(=O)N[C@H](CC(C)C)C(=O)N[C@H](CCCCN)C(=O)N[C@H](CCCCN)C(=O)N[C@H](CCCCN)C(=O)N[C@H](CCCCN)C(N)=O [WCopW14] (H-[dL][dL][dW][dI]G[dL][dK][dK][dK][dK]-NH2) ?
Criterion met

Item CC[C@@H](C)[C@@H](NC(=O)[C@@H](Cc1c[nH]c2ccccc12)NC(=O)[C@@H](CC(C)C)NC(=O)[C@@H](CC(C)C)NC(=O)[C@@H](Cc1c[nH]c2ccccc12)NC(=O)[C@@H](N)CO)C(=O)NCC(=O)N[C@H](CC(C)C)C(=O)N[C@H](CCCNC(=N)N)C(=O)N[C@H](CCCCN)C(=O)N[C@H](CCCCN)C(=O)N[C@H](CCCNC(=N)N)C(N)=O [WCopW19] (H-S[dW][dL][dL][dW][dI]G[dL][dR][dK][dK][dR]-NH2) with Hemolysis percent, 50 μM of 1% or above?
Criterion met

Does the compound CC(C)C[C@@H](NC(=O)[C@H](N)Cc1c[nH]c2ccccc12)C(=O)N[C@@H](C(=O)N[C@H](Cc1c[nH]c2ccccc12)C(=O)N[C@H](CO)C(=O)N[C@H](Cc1c[nH]c2ccccc12)C(=O)N[C@H](CCCNC(=N)N)C(=O)N[C@H](CCCNC(=N)N)C(=O)N[C@H](CCCNC(=N)N)C(N)=O)C(C)C [WCopW39] (H-[dW][dL][dV][dW][dS][dW][dR][dR][dR]-NH2) have recorded Hemolysis percent, 50 μM that is 1% or more?
Criterion not met

Determine whether this compound has Hemolysis percent, 50 μM no lower than 1%: CC(C)C[C@H](NC(=O)[C@H](CCCNC(=N)N)NC(=O)CNC(=O)CNC(=O)[C@@H](N)CCCNC(=N)N)C(=O)N[C@H]1CSSC[C@@H](C(=O)N[C@H](C(=O)NCC(=O)N[C@@H](CCCNC(=N)N)C(N)=O)C(C)C)NC(=O)[C@H](C(C)C)NC(=O)[C@@H]2CSSC[C@H](NC(=O)[C@H](Cc3ccc(O)cc3)NC1=O)C(=O)N[C@@H](CCCNC(=N)N)C(=O)N[C@@H](CCCNC(=N)N)C(=O)N[C@@H](CCCNC(=N)N)C(=O)N[C@@H](Cc1ccccc1)C(=O)N2 [Protegrin-1, reference compound]
Criterion met

Hello, I need to know if CC(C)[C@@H](NC(=O)[C@H](N)Cc1c[nH]c2ccccc12)C(=O)N[C@@H](C(=O)N[C@H](Cc1c[nH]c2ccccc12)C(=O)N[C@@H](C(=O)N[C@@H](C(=O)N[C@H](Cc1c[nH]c2ccccc12)C(=O)N[C@H](CCCNC(=N)N)C(=O)N[C@H](CCCNC(=N)N)C(=O)N[C@H](CCCNC(=N)N)C(N)=O)C(C)C)C(C)C)C(C)C [WCopW42] (H-[dW][dV][dV][dW][dV][dV][dW][dR][dR][dR]-NH2) has measured Hemolysis percent, 50 μM not below 1%. Thanks!
Criterion met

Assess whether reported Hemolysis percent, 50 μM for CC[C@@H](C)[C@@H](NC(=O)[C@@H](Cc1c[nH]c2ccccc12)NC(=O)[C@H](NC(=O)[C@@H](CC(C)C)NC(=O)[C@H](N)Cc1c[nH]c2ccccc12)C(C)C)C(=O)N[C@H](Cc1ccc(O)cc1)C(=O)N[C@H](CCCNC(=N)N)C(=O)N[C@H](CCCNC(=N)N)C(=O)N[C@H](CCCNC(=N)N)C(N)=O [WCopW33] (H-[dW][dL][dV][dW][dI][dY][dR][dR][dR]-NH2) sits at 1% or higher.
Criterion met
